Target: T1, PD1-Fc (canine, UniProt A0A090BAM7 25-168)
T1 construct: also called Only Ag (PD1 Fc)
T1 sequence (A0A090BAM7 entry or part of it limits assumed): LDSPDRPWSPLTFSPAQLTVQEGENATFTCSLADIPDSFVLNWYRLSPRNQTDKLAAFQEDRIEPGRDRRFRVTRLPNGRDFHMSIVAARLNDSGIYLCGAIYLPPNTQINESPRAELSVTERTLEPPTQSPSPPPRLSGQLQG
Test: Octet BLI competition, competitor PD-L1 Fc on AHC sensor, against PD1 Fc only
In this section, each of the binders is paired with its reported % response.
Express your answer in %, writing the number without its unit.

The following binders have reported results that may help.
* PD-1 A-M10 (antibody, mouse IgG1, V domains shown, Mouse IgG1 kappa, hybridoma supernatant; also called 8H01) VH: EVRLQQSGAELVKPGASVKLSCTASGFNIKDTYLHWLKERPEQGLEWIGRIDPAIGNTRYDPKFQVKATITADTSSNTAYLQLSSLTSEDSAVYYCARGFYGMDYWGQGTSVTVSS VL: QIVLTQSPAIMSASPGEKVTMTCSASSSVSYMFWYQQKPGSSPRLWIYDTSNLVSGVPARFSGSRSGTSYSLTISSMEAEDAATYYCQQYSGYPYTFGGGTKLEIK | 12
* PD-1 A-M3 (antibody, mouse IgG1, V domains shown, Mouse IgG1 kappa, hybridoma supernatant; also called 4G01) VH: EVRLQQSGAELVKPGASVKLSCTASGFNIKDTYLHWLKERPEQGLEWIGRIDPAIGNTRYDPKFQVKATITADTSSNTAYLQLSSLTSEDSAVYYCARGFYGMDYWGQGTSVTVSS VL: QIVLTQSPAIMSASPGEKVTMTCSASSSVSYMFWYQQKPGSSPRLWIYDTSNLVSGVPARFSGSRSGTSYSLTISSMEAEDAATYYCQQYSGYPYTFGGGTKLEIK | -5

What measured % response goes with PD-1 A-M15 (antibody, mouse IgG1, V domains shown, Mouse IgG1 kappa, hybridoma supernatant; also called 11E10) VH: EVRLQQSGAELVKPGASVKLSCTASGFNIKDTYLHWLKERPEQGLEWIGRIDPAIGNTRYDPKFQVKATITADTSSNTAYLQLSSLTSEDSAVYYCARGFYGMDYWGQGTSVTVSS VL: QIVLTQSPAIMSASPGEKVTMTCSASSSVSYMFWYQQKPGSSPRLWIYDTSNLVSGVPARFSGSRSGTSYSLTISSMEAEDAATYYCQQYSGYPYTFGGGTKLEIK ?
-8.21
